Attribution: patent US10221172B2

target: human mGluR4 (Homo sapiens (Human), UniProt Q14833); assay: mGluR4 potentiation assay, CHO cells transfected with human mGluR4, Ca2+-sensitive dye, EC20 agonist; assay type: cell-based; settings: potentiation of mGluR4; summary list repeated at the end of the table; species not stated
Sequence (Q14833 33-912): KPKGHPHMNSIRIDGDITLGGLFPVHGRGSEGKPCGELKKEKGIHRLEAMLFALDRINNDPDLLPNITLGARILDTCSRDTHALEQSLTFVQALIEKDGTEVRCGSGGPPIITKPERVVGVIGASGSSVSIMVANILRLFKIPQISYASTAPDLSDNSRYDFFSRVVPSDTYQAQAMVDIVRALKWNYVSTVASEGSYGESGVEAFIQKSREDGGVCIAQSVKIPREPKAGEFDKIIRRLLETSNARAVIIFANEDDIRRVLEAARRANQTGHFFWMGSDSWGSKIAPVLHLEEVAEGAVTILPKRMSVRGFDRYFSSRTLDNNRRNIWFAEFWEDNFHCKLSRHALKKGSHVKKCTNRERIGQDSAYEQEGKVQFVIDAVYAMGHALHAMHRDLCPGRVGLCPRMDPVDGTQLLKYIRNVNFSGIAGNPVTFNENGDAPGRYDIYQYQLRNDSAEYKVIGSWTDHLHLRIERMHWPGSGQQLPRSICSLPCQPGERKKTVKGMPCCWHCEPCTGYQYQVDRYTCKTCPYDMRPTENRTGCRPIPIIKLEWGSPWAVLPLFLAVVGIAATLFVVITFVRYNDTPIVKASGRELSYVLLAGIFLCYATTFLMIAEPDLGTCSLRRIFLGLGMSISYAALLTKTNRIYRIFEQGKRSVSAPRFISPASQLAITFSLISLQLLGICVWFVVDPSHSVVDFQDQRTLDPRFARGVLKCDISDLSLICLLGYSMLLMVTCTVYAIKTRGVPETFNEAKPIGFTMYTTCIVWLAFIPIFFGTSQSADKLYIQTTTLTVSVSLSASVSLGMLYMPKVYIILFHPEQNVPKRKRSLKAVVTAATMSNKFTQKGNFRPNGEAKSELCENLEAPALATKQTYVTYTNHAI
EXPERIMENTAL ENDPOINT: EC50 (nM)

A. c1cnc2[nH]nc(Nc3cnc4c(CN5CCCCC5)nsc4c3)c2c1
B. O=C(c1nsc2cc(Nc3n[nH]c4cccnc34)ccc12)N1CCC(F)(F)CC1
Q: Consider entries A and B . Which has the numerically lower EC50? Output the label that corresponds to your choice.
Result: B
(B: 60 nM, A: 1560 nM)

I. CC(C)(C)Cc1nsc2cc(Nc3n[nH]c4ncccc34)ccc12
II. CCCc1nsc2cc(Nc3n[nH]c4nccnc34)ccc12
Q: Hi, I'm comparing I with II and wondering which one has the bigger number for EC50. Any idea? Indicate which entry you chose by stating its label.
Result: I
(I: 884 nM, II: 23.4 nM)

P. O=C(c1nsc2cc(Nc3n[nH]c4cccnc34)ccc12)N1CCC(F)(F)C1
Q. c1ccc(-c2nsc3cc(Nc4n[nH]c5cccnc45)ccc23)cc1
R. FC(F)(F)c1nsc2cc(Nc3n[nH]c4ncccc34)ccc12
Q: Rank by EC50 (largest to smallest). Record the ranking as a list of labels in the requested order.
Result: R, P, Q
(R: 1240 nM, P: 325 nM, Q: 226 nM)

I. O=C(C1CC1)N1CCC(c2nsc3cc(Nc4n[nH]c5cccnc45)ccc23)CC1
II. O=C(c1nsc2cc(Nc3n[nH]c4cccnc34)ccc12)N1CCCC(F)(F)C1
Q: Between I and II , which one shows the larger EC50 value? Answer with the label corresponding to your selection.
Result: I
